Reported GI50 values, U251 CNS.

Known results for molecules:
CCOC(=O)/C=C/c1ccc(C(=O)OCC)[nH]1 ... 3.92 µM
OC1CCC(Oc2cccc3cnc(Nc4ccc5nc[nH]c5c4)nc23)CC1 (stereo not given) ... 0.428 µM
C=C(CNCCO)[C@@H]1CC[C@]2(CO)CC[C@]3(C)[C@H](CC[C@@H]4[C@@]5(C)CCC(NCCc6ccc(O)cc6)C(C)(C)[C@@H]5CC[C@]43C)[C@@H]12 (stereo not given in full) ... 0.278 µM

query: Report GI50, nothing else, for this molecule: `NS(=O)(=O)c1ccc(/C=C/c2cccc(O)c2)cc1`
result: 21.1 µM

query: State, in one line, measured GI50 of `NC(N)=N/N=C/c1c(-c2cc(Cl)sc2Cl)nc2n1CCS2`
result: 7.61 µM

query: Hello, please tell me recorded GI50 for this one: CCCCS(=N)(=O)CC[C@H](N)C(=O)O (stereo not given in full)
result: > 10000 µM

query: Note GI50 for the molecule shown: `COc1ccc(-c2cn3ccnc3c(-c3ccc4ncn(C5CCCCC5)c4c3)n2)cc1`
result: 2.22 µM

query: For the molecule C=C1C(O)C2C(=C(CC(C)C)C13CC3)C(=O)C(C)(C)C2OC (stereo not given) , give its reported GI50.
result: > 100 µM

query: # return recorded GI50 for entry `Cc1ccc2c(c1)sc(-c1ccc(N(C)C)cc1)[n+]2C`
result: 0.467 µM

query: Look up and state reported GI50 for `COC(=O)c1ccc2c(c1)c1c(C)c3cnccc3c(C)c1n2C`
result: 0.0499 µM

----------
# System: ACHN renal
Quick reference for GI50 among some compounds

Completed entries (count: 8):
Cn1nnnc1[N-]Cc1ccccc1.[Au+].c1ccc([PH+](c2ccccc2)c2ccccc2)cc1 ... 4.29 µM
C=C1C(O)C2C(=C(CC(C)C)C13CC3)C(=O)C(C)(C)C2OC (centres undefined) ... > 100 µM
CC(C)(C)C([O-])=C1C(=O)c2ccccc2C1=O.CC(C)(C)C([O-])=C1C(=O)c2ccccc2C1=O.CC[O-].CC[O-].[Ti+4] ... 35.2 µM
CC/C=C\C[C@H](O)C/C=C1/C(=O)C=C[C@@H]1C/C=C\CCCC(N)=O ... 1.64 µM
[Cl][Sn]([c]1ccccc1)[c]1ccccc1 ... 11.9 µM
N#CC1C(N)=NNC1c1ccc(-c2ccc(-c3nc4ccccc4o3)cc2)o1 (centres undefined) ... 14.6 µM
C=C1C(=O)O[C@H]2[C@H]1CC/C(COC(=O)c1ccc(C(=O)O)s1)=C\CC[C@@]1(C)O[C@@H]21 ... 1.63 µM
CCN(CC)C(=S)SSC1CCCCC1 ... 16.6 µM

query: Consider the compound `COc1cccc2c(=O)c3c(sc12)c(NCCCN)nc1ccccc13` and give its recorded GI50.
result: 1.32 µM

----------
# Tested on: UACC-62 melanoma
# protocolDetails: NCI tumour cell line growth inhibition, 48 h
testReadout: TGI

query: Tell us which TGI value is on record for `Nc1ccc2c(c1)[O][Sn]([c]1ccccc1)([c]1ccccc1)[O]C2=O`
result: 16.3 µM

query: Check the records and state TGI for `CC1=Nn2c(nc3sc4c(c3c2=O)CCCC4)SC1`
result: > 100 µM

query: Answer with reported TGI of `c1c[nH]c(Cc2ncc(Cc3cnc[nH]3)[nH]2)n1`
result: 59.5 µM

query: For the molecule `COc1ccc(-c2cn3ccnc3c(-c3ccc4ncn(C5CCCCC5)c4c3)n2)cc1` , give its measured TGI value.
result: > 100 µM

query: Tell us which TGI value is on record for `O=S(=O)(O)c1ccc2cc(N=Nc3cc(S(=O)(=O)O)c4cccnc4c3O)ccc2c1`
result: > 100 µM

All values here come from PubChem BioAssay (NCI).
